Source: ChEMBL document CHEMBL4673275

- measured on: Acetylcholinesterase (Homo sapiens) (UniProt P22303)
- Sequence (P22303 whole entry): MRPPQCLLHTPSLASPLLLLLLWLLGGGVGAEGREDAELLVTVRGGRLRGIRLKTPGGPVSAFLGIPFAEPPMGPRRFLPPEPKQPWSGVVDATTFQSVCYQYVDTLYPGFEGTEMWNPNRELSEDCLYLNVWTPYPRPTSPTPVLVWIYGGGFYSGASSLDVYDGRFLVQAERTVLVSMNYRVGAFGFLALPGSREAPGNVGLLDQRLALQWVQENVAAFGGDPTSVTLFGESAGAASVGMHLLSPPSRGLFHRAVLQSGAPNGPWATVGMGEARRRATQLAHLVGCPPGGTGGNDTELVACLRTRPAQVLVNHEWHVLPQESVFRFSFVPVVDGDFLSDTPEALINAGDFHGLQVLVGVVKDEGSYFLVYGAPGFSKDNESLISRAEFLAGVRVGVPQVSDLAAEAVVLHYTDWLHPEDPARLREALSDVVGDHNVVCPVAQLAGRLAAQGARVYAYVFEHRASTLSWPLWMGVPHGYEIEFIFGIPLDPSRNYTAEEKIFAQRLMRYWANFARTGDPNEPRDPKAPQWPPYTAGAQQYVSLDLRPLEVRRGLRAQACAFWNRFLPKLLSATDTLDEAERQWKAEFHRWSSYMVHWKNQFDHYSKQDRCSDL
- measurement protocol: Inhibition of AChE (unknown origin) at 1 to 25 uM
- stated conditions: dose 1-25 µM
Active and inactive are the calls of the source. The rule behind the calls is not given here.
observed property: inhibition

# molecule, result
records = [
    ("CN(C)C(=O)Oc1cccc([N+](C)(C)C)c1", "Active"),
    ("O=C(O)/C=C/c1ccc(O)c(O)c1", "Active"),
    ("Oc1ccc2c(c1)OCC(Cc1ccc(O)c(O)c1)C2 (racemic)", "Active"),
    ("Oc1ccc(CC2COc3ccccc3C2)cc1O (stereo unspecified)", "Active"),
    ("O=c1c(Cc2ccc(O)c(O)c2)coc2ccccc12", "Active"),
]
